test system: α7 integrin (LacZ reporter in α7βgal+/− myoblasts); test: Myoblast α7+/LacZ integrin FDG assay (Burkin assay in myoblasts, 96-well); format: cell-based, mouse; details: 1 uM; α7+/LacZ myoblasts, 96-well
Experimental Endpoint: Burkin Assay in Myoblasts, value relative to DMSO
Answers are plain numbers.

CCOc1ccc(-n2c(C)c(C(=O)O)c3cc(OC)ccc32)cc1 : 1.205
CC(=O)Nc1c(-c2ccc(Cl)cc2)c(=O)c2ccccc2n1C : 0.9241
Cc1ccc(NC(=O)NCc2nc3ccccc3n2C)cc1 : 0.8859

Value sought for every listed molecule: Burkin Assay in Myoblasts, value relative to DMSO.
1. CN(C)S(=O)(=O)c1cccc(C(=O)Nc2ccc3c(c2)CCC3)c1
2. CSc1ncccc1C(=O)OCC(=O)c1cc(C)n(C)c1C
3. COc1ccc(C(=O)O/N=C(\N)c2cccc(C)c2)cc1OC

Result:
1: 0.994; 2: 1.037; 3: 0.9491

====

I'd appreciate it if you could supply fold induction at 10 µM values for the items below.
tested on: α7 integrin (LacZ reporter in α7βgal+/− myoblasts); test: Myoblast α7+/LacZ integrin FDG assay (Burkin assay in myoblasts, 96-well); format: cell-based, mouse; conditions: Mus musculus, Myoblast, 48 h; 10 uM; α7+/LacZ myoblasts, 96-well; read-out: Burkin Assay in Myoblasts, signal relative to DMSO
Numbers only.

Use the examples below as a reference point.
COc1ccc(-c2cc(COc3ccccc3)on2)cc1 : 1.06
Nc1nccc(-c2ccc(-n3cnc4ccccc43)cc2)n1 : 1.53
COc1ccc(Nc2ncnc3ccc(C)cc23)cc1 : 1.31

Value sought for every listed molecule: fold induction at 10 µM.
1. COc1ccc(CCNC(=O)c2nn(C)c3c2CS(=O)(=O)c2ccccc2-3)cc1OC
2. COc1nccc(NCc2ccccc2)c1C#N

Result:
[0.901, 1.06]

====

system: α7 integrin (LacZ reporter in α7βgal+/− myoblasts); assay: Myoblast α7+/LacZ integrin FDG assay (Burkin assay in myoblasts, 96-well); format: cell-based, mouse; details: 40 uM; α7+/LacZ myoblasts, 96-well
Experimental Endpoint: Burkin Assay in Myoblasts, signal relative to DMSO
One number for each entry.

Use the examples below as a reference point.
NC(=O)c1cccnc1Oc1ccc(Cl)cc1Cl [MLS000861434-01] : 0.9322
O=C(COC(=O)Cn1cnc2ccccc21)Nc1cccc([N+](=O)[O-])c1 [MLS001005283-01] : 0.9301
CCN(C(=O)c1ccc(S(=O)(=O)N(C)C)cc1)C(C)C(=O)Nc1ccc(C)cc1 (centres unmarked) [MLS001170856-01] : 0.7133

Value sought for every listed compound: Burkin Assay in Myoblasts, signal relative to DMSO.
1. Cc1ccc(Cn2nnc3c(=O)[nH]c(C4CCCN(C(=O)c5ccco5)C4)nc32)cc1 (centres unmarked) [MLS001217212-01]
2. CSc1ccc(S(=O)(=O)NCc2ccccc2)cc1 [MLS000531177-01]

Result:
[1.064, 0.8008]

Value sought for every listed compound: Burkin Assay in Myoblasts, signal relative to DMSO.
1. O=C1CCC(C(=O)N2CCSCC2)CN1Cc1ccc(Cl)cc1 (centres unmarked) [MLS001090787-01]
2. COC(=O)c1cc(S(=O)(=O)NCC2CCN(Cc3ccc(Cl)cc3)CC2)cn1C [MLS001095033-01]
3. CCCn1c(-c2cc(OC)c(OC)c(OC)c2)nc2c1c(=O)[nH]c(=O)n2Cc1ccccc1 [MLS001174740-01]
4. c1ccc(-c2cn3c4c(sc3n2)CCCC4)cc1 [MLS002636056-01]
5. Cc1[nH]c(=O)[nH]c(=O)c1S(=O)(=O)Nc1ccc(F)cc1Cl [MLS001200149-01]

Result:
1.222
1.0618
0.5414
0.8203
0.9876
